- assay_method_text: PAMPA (parallel artificial membrane permeability assay)
- Type: in vitro ADME
- assay_context: PAMPA; membrane permeation rate (Pe); 50 mM MOPSO buffer pH 6.5 with 5.0% glycocholic acid, 37° C., 18 hours; read-out: iPAMPA Pe
Starred links: 1 amine or outer side, 2 acyl side, 3 side chain; linkers in the order of their positions; H or OH if unused. Positions of bridges follow the written chain, without caps; N, C: chain ends. Non-standard residues stand in square brackets, D forms with d. Residues, ends and D or L forms follow the SMILES beside them. *: point of attachment. Phe(3-(CH2)4CO) = O=C([C@H](Cc1cccc(CCCCC(=O)[*:3])c1)N[*:1])[*:2]; NMeF = CN[C@@H](Cc1ccccc1)C(=O)O; NMeI = CC[C@H](C)[C@H](NC)C(=O)O; NMeβAla = CN(CCC(=O)[*:2])[*:1]; NMeL = CN[C@@H](CC(C)C)C(=O)O; Phg = N[C@H](C(=O)O)c1ccccc1; NMeV = CN[C@H](C(=O)O)C(C)C; NMeA = CN[C@@H](C)C(=O)O; Piperidide = C1CCN(*)CC1; dNMeA = CN[C@H](C)C(=O)O; Sar = CNCC(=O)O; tBu = CC(C)(C)*
parameter_measured: Papp at 18 hours, 50 µM

Example results:
[
  {
    "compound": "CC[C@H](C)[C@H]1C(=O)N[C@@H](Cc2ccccc2)C(=O)N(C)[C@@H](Cc2ccccc2)C(=O)N[C@@H]([C@@H](C)O)C(=O)N2CCC[C@H]2C(=O)N[C@@H](CC(C)C)C(=O)N[C@H](C(=O)N2CCCCC2)Cc2cccc(c2)CCCCC(=O)N[C@@H](C(C)C)C(=O)N(C)CC(=O)N[C@@H](CC(C)C)C(=O)N(C)[C@@H](CC(C)C)C(=O)N[C@@H](C)C(=O)N1C [DP-896] (V[Sar]L[NMeL]A[NMeI]F[NMeF]TPL[Phe(3-(CH2)4CO)]-Piperidide; lactam N-12)",
    "Papp at 18 hours, 50 µM": "13 ×10⁻⁶ cm/s"
  },
  {
    "compound": "CC(C)C[C@H]1C(=O)N(C)[C@@H](Cc2ccccc2)C(=O)N[C@@H]([C@@H](C)O)C(=O)N(C)[C@@H](C)C(=O)N[C@@H](C)C(=O)N(C)[C@@H](Cc2ccccc2)C(=O)N[C@@H](C)C(=O)N(C)[C@@H](C(C)C)C(=O)N(C)[C@@H](C)C(=O)N[C@H](C(=O)N(C)[C@@H](Cc2ccccc2)C(=O)N[C@@H](C)C(=O)N2CCCCC2)CC(=O)N(C)[C@H](C)C(=O)N1C [DP-348] ([dNMeA][NMeL][NMeF]T[NMeA]A[NMeF]A[NMeV][NMeA]D[NMeF]A-Piperidide; lactam N-11)",
    "Papp at 18 hours, 50 µM": "19 ×10⁻⁶ cm/s"
  },
  {
    "compound": "CC(C)C[C@H]1C(=O)NCC(=O)N[C@H](C(=O)N2CCCCC2)CC(=O)N[C@@H](c2ccccc2)C(=O)N[C@@H]([C@@H](C)O)C(=O)N(C)[C@@H](C)C(=O)N(C)[C@@H](Cc2ccccc2)C(=O)N(C)[C@@H](Cc2ccccc2)C(=O)N[C@@H](COC(C)(C)C)C(=O)N1C [DP-563] ([Phg]T[NMeA][NMeF][NMeF]S(tBu)[NMeL]GD-Piperidide; lactam N-9)",
    "Papp at 18 hours, 50 µM": "35 ×10⁻⁶ cm/s"
  }
]

# map each compound to its Papp at 18 hours, 50 µM
1. CC(C)C[C@H]1C(=O)N(C)[C@@H](Cc2ccccc2)C(=O)N(C)[C@@H](Cc2ccccc2)C(=O)N[C@@H]([C@@H](C)O)C(=O)N(C)[C@@H](C)C(=O)N(C)[C@@H](CC(C)C)C(=O)N[C@H](C(=O)N2CCCCC2)CC(=O)N(C)[C@H](C)C(=O)N(C)[C@@H](CC(C)C)C(=O)N(C)[C@@H](CC(C)C)C(=O)N[C@@H](C)C(=O)N1C [DP-166] ([dNMeA][NMeL][NMeL]A[NMeL][NMeF][NMeF]T[NMeA][NMeL]D-Piperidide; lactam N-11)
2. CC(C)C[C@H]1C(=O)N(C)[C@@H](C)C(=O)N[C@@H](C)C(=O)N[C@H](C(=O)N2CCCCC2)CC(=O)N(C)CCC(=O)N(C)[C@@H](Cc2ccccc2)C(=O)N(C)[C@@H](C)C(=O)N[C@@H]([C@@H](C)O)C(=O)N(C)[C@@H](C)C(=O)N[C@@H](Cc2ccccc2)C(=O)N(C)[C@@H](C(C)C)C(=O)N1C [DP-326] ([NMeβAla][NMeF][NMeA]T[NMeA]F[NMeV][NMeL][NMeA]AD-Piperidide; lactam N-11)

Response:
["55 ×10⁻⁶ cm/s", "2.5 ×10⁻⁶ cm/s"]
